run.description: Tmax in BALB/C mouse at 25 mg/kg, po by LC/TSQ quantum access mass spectrometry
Type: ADME, organism-based
particulars: in vivo
measure: Tmax (min)

1) O=c1cc(N2CCN(CC3CCCCC3)CC2)sc2c([N+](=O)[O-])cc(C(F)(F)F)cc12    30

###

run.description: MRT (0 to infinity) in BALB/C mouse at 25 mg/kg, po by LC/TSQ quantum access mass spectrometry
Type: ADME, organism-based
particulars: in vivo
measure: MRT inf (h)

1) O=c1cc(N2CCN(CC3CCCCC3)CC2)sc2c([N+](=O)[O-])cc(C(F)(F)F)cc12    6.59

###

Listing: remaining at 0.5 h, 1 µM of selected molecules
run.description: Metabolic stability in CD-1 mouse liver microsomes assessed as parent compound remaining at 1 uM measured after 30 mins in presence of NADPH by LC-MS/MS analysis
Type: ADME, Microsome
particulars: read-out: Stability
measure: remaining at 0.5 h, 1 µM (%)

1. CC1CN(c2cc(=O)c3cc(C(F)(F)F)cc([N+](=O)[O-])c3s2)CCN1Cc1ccccc1 (stereo not given)    54.5
2. O=c1cc(N2CCN(Cc3ccccc3)CC2)sc2c([N+](=O)[O-])cc(C(F)(F)F)cc12    60.5
3. CC1COC2(CCN(c3cc(=O)c4cc(C(F)(F)F)cc([N+](=O)[O-])c4s3)CC2)O1 (stereo not given)    47.4
4. CC1CN(c2cc(=O)c3cc(C(F)(F)F)cc([N+](=O)[O-])c3s2)CCN1CC1CCCCC1 (stereo not given)    59.9
5. O=c1cc(N2CCN(CC3CCCCC3)CC2)sc2c([N+](=O)[O-])cc(C(F)(F)F)cc12    61.5
